# Tested on: UACC-257 melanoma
# Test method notes: NCI tumour cell line growth inhibition, 48 h
Reported metric: TGI

compound=O=[N+]([O-])c1ccc(N2CCN(Cc3ccccc3)CC2)c2c1no[n+]2[O-] target_entity="UACC-257 melanoma" reported_metric=TGI reported_result="3.86 µM"
compound=Cn1cc(C(=O)c2nccc3c2cnc2ccccc23)ccc1=O target_entity="UACC-257 melanoma" reported_metric=TGI reported_result="> 100 µM"
compound=CCOC(=O)/C(C#N)=C/c1ccc2c(-c3c(OCC)ccc4cc(/C=C(\C#N)C(=O)OCC)ccc34)c(OCC)ccc2c1 target_entity="UACC-257 melanoma" reported_metric=TGI reported_result="> 100 µM"
compound=CC(=O)Nc1ccc(/C=C(\NC(=O)c2ccccc2)c2nc3ccc4c(c3[nH]2)C(=O)c2ccccc2C4=O)cc1 target_entity="UACC-257 melanoma" reported_metric=TGI reported_result="> 100 µM"
compound=COc1cccc(N2C(=O)c3c(c4[nH]c5ccccc5c4c4ccc(C(C)(C)C)cc34)C2=O)c1 target_entity="UACC-257 melanoma" reported_metric=TGI reported_result="> 100 µM"
compound=COc1cc(NS(C)(=O)=O)ccc1NCc1cnc2ccc3[nH]c(C)ccc3c12 target_entity="UACC-257 melanoma" reported_metric=TGI reported_result="> 100 µM"
compound=CN1CCN(Cc2ccc(-c3cc4ncnc(Nc5ccc(OCc6cccc(F)c6)c(Cl)c5)c4s3)o2)CC1 target_entity="UACC-257 melanoma" reported_metric=TGI reported_result="8.37 µM"
compound=COc1cc(Nc2cnc3cc(C(F)(F)F)ccc3n2)cc(OC)c1OC target_entity="UACC-257 melanoma" reported_metric=TGI reported_result="> 100 µM"
compound=CCc1ccc(-c2nnc(COc3ccc(-c4nc5ccc(C)cc5[nH]4)cc3OC)o2)cc1 target_entity="UACC-257 melanoma" reported_metric=TGI reported_result="16.2 µM"
compound="CN1C2CCC1CC(OC(c1ccccc1)c1ccccc1)C2 (stereo not given)" target_entity="UACC-257 melanoma" reported_metric=TGI reported_result="26.6 µM"
compound=C/C(=N\NC(=S)N1CCCCCC1)c1nccnc1C target_entity="UACC-257 melanoma" reported_metric=TGI reported_result="1.77 µM"
compound="C/C(=N\\N=C(N)N)C(CN(CC(C)C)CC(C)C)C(=O)Nc1ccc(C)cc1C (stereo not given)" target_entity="UACC-257 melanoma" reported_metric=TGI reported_result="> 100 µM"
compound=Oc1ccc2ccccc2c1C=NCCCN=Cc1c(O)ccc2ccccc12 target_entity="UACC-257 melanoma" reported_metric=TGI reported_result="> 100 µM"
compound="CC1=CC=NN2C(=O)[C@H](C)C2C1 (stereo not given in full)" target_entity="UACC-257 melanoma" reported_metric=TGI reported_result="> 100 µM"
compound=Nc1c(C(=O)Nc2ccccc2)sc2nc3c(cc12)CCCCCC3 target_entity="UACC-257 melanoma" reported_metric=TGI reported_result="28.9 µM"
compound=COc1ccc(C(=O)Cn2c(C(=O)c3ccc(Cl)cc3)nc3ccccc32)cc1 target_entity="UACC-257 melanoma" reported_metric=TGI reported_result="> 100 µM"
compound="CC1=C(/C=C/C(C)=C/C=C/C(C)=C/C(=O)OCC2OC(n3cc(F)c(=O)[nH]c3=O)CC2OC(=O)/C=C(C)/C=C/C=C(C)/C=C/C2=C(C)CCCC2(C)C)C(C)(C)CCC1 (stereo not given)" target_entity="UACC-257 melanoma" reported_metric=TGI reported_result="> 92.1 µM"
compound="O=C(O)CC(C(=O)O)c1ccccc1[N+](=O)[O-] (stereo not given)" target_entity="UACC-257 melanoma" reported_metric=TGI reported_result="> 100 µM"
compound=C/C(CN1C(=O)c2ccccc2C1=O)=N\NS(=O)(=O)c1cccc([N+](=O)[O-])c1 target_entity="UACC-257 melanoma" reported_metric=TGI reported_result="> 100 µM"
compound="Cc1ccc(C)c(NC(=O)C(=O)C2C(=O)C3=C(CC2(C)C)Nc2ccccc2S3)c1 (stereo not given)" target_entity="UACC-257 melanoma" reported_metric=TGI reported_result="> 100 µM"
